Cited source for all entries: patent US20250026849A1

Test System: T1, CD123 (Homo sapiens (Human), UniProt P26951 19-305, limits assumed)
T1 construct: The CD123 construct used in the ELISA is not described; also called CD123-Signal
T1 sequence: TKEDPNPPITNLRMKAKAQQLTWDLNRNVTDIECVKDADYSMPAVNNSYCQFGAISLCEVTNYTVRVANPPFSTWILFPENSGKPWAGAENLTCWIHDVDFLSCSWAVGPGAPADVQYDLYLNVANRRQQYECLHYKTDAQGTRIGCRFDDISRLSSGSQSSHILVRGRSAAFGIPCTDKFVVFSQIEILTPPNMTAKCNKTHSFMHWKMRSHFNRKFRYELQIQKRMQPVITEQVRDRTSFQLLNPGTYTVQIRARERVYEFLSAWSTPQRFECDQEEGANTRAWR
Assay Comment: ELISA
Parameters: unit not given here
Lab note - cut at 7 for ELISA_avg: condition met if strictly below, condition not met if not.

{"Binder": "D domain of SEQ ID NO: 547 (designed binder) MGSWIWFKDWLADIKDLLEALGGSEAELAEFEYDIALFEDQLQAYKGKGNPEVEALRKEAAAIRDELQAYRHN", "Group": "condition not met"}
{"Binder": "D domain of SEQ ID NO: 564 (designed binder) MGSWTEFKGELAEIKWILEALGGSEAELAFFEDEIAAFEWDLQKYKGKGNPEVEALRKEAAAIRDELQAYRHN", "Group": "condition not met"}
{"Binder": "D domain of SEQ ID NO: 499 (designed binder) MGSWIFFKEQLAIIKWELEALGGSEAELAWFEDDIAAFEDDLQFYKGQGNPEVEALRKEAAAIRDELQAYRHN", "Group": "condition not met"}
{"Binder": "D domain of SEQ ID NO: 562 (designed binder) MGSWHWFKEDLAMITDVLEALGGSEAELAAFESEIAVFEADLQYYKGKGNPEVEALRKEAAAIRDELQAYRHN", "Group": "condition met"}
{"Binder": "D domain of SEQ ID NO: 650 (designed binder) MGSWDEFAMRLEAIQARLFALGGSEAELAIFEDEIAFFETMLQDYKGKGNPEVEALEYEAAAIEAELGAYRHN", "Group": "condition met"}
{"Binder": "D domain of SEQ ID NO: 565 (designed binder) MGSWFEFKWTLALIKQELEALGGSEAELADFEQEIAEFEWWLQTYKGKGNPEVEALRKEAAAIRDELQAYRHN", "Group": "condition met"}
{"Binder": "D domain of SEQ ID NO: 590 (designed binder) MGSWEEFHERLDAIDERLEALGGSEAELAFFEDDIASFEDWLQWYKGKGNPEVEALSREADAINFELEAYRHN", "Group": "condition met"}
{"Binder": "D domain of SEQ ID NO: 426 (designed binder) MGSWWEFEERLWAIDYRLHALGGSEAELAAFEKEIAAFESELQAYKGKGNPEVEMLRSWAAEIRALLQAYRHN", "Group": "condition met"}
